Reference for the values: PubChem BioAssay AID1919009

System: K24384-001-R-PDC complex spheroid growth
Assay: Anticancer human tumor K24384-001-R-PDC patient-derived pancreatic adenocarcinoma cell line growth inhibition [AhR]
Details: curve of first compound; second compound 0.1 µM
measured attribute: log10(IC50) (log10 of the value in nM)

[[record]]
compound = "CCc1c2c(nc3ccc(O)cc13)-c1cc3c(c(=O)n1C2)COC(=O)[C@]3(O)CC + Cc1ccccc1N=Nc1ccc(NC(=O)c2ccnn2C)c(C)c1"
value_measured = 0.94

[[record]]
compound = "NS(=O)(=O)OCC1CC(n2ccc3c(NC4CCc5ccccc54)ncnc32)CC1O (centres undefined) + Cc1cncc(-c2nc(NCCc3c[nH]c4ccccc34)c3ncn(C(C)C)c3n2)c1"
value_measured = 3.37

[[record]]
compound = "CC(C)CC(NC(=O)C(Cc1ccccc1)NC(=O)c1cnccn1)B(O)O (centres undefined) + Cc1ccccc1N=Nc1ccc(NC(=O)c2ccnn2C)c(C)c1"
value_measured = 1.03

[[record]]
compound = "O=C(C=Cn1cnc(-c2cc(C(F)(F)F)cc(C(F)(F)F)c2)n1)NNc1cnccn1 + Cc1cncc(-c2nc(NCCc3c[nH]c4ccccc34)c3ncn(C(C)C)c3n2)c1"
value_measured = 2.32

[[record]]
compound = "O=C(C=Cc1cccc(S(=O)(=O)Nc2ccccc2)c1)NO + Cc1cncc(-c2nc(NCCc3c[nH]c4ccccc34)c3ncn(C(C)C)c3n2)c1"
value_measured = 3.26

[[record]]
compound = "COc1cc(C2c3cc4c(cc3C(OC3OC5COC(C)OC5C(O)C3O)C3COC(=O)C23)OCO4)cc(OC)c1O (centres undefined) + Cc1ccccc1N=Nc1ccc(NC(=O)c2ccnn2C)c(C)c1"
value_measured = 2.98

